Measured viability, T/C accompanies every entry in the list below.
# Tested on: 485368-065-R4-J2-PDC spheroids with HUVEC/MSC, viability
# test: Anticancer human tumor 485368-065-R4-J2-PDC patient-derived pancreatic carcinoma cell line growth inhibition [CLK]
# test settings: second compound 10 µM; first compound 0.1 µM; active compounds read low

• CC1COCCN1c1cc(C2(S(C)(=N)=O)CC2)nc(-c2ccnc3[nH]ccc23)n1 (stereo not given) + CN1CCN(c2cc(C(=O)Nc3cc4cc(-c5cnn(C)c5)ccc4cn3)ccn2)CC1 = 2.62%
• CC1(C)CCC(CN2CCN(c3ccc(C(=O)NS(=O)(=O)c4ccc(NCC5CCOCC5)c([N+](=O)[O-])c4)c(Oc4cnc5[nH]ccc5c4)c3)CC2)=C(c2ccc(Cl)cc2)C1 + CNC(=O)c1ccc(Nc2nc(OC3CCCC3)c3c(-c4ccc5nc(C)oc5c4)c[nH]c3n2)c(OC)c1 = 72%
• Nc1ccccc1NC(=O)c1ccc(CNC(=O)OCc2cccnc2)cc1 + CNC(=O)c1ccc(Nc2nc(OC3CCCC3)c3c(-c4ccc5nc(C)oc5c4)c[nH]c3n2)c(OC)c1 = 73.9%
• COc1cccc2c1C(=O)c1c(O)c3c(c(O)c1C2=O)CC(O)(C(=O)CO)CC3OC1CC(N)C(O)C(C)O1 (stereo not given) + CNC(=O)c1ccc(Nc2nc(OC3CCCC3)c3c(-c4ccc5nc(C)oc5c4)c[nH]c3n2)c(OC)c1 = 53.4%

Now consider the entry below.
Asked: // lookup viability, T/C for CCc1c2c(nc3ccc(O)cc13)-c1cc3c(c(=O)n1C2)COC(=O)[C@]3(O)CC + CN1CCN(c2cc(C(=O)Nc3cc4cc(-c5cnn(C)c5)ccc4cn3)ccn2)CC1
Given back: 8.95%

====

# System: 485368-065-R4-J2-PDC spheroids with HUVEC/MSC, viability
# test: Anticancer human tumor 485368-065-R4-J2-PDC cell line growth inhibition [CLK]; active = viability on the fitted dose curve at most 10% of control; inactive = the rest;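 further: spheroids exposed to compounds for seven days; 100% = DMSO vehicle control wells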
# test settings: second compound 10 µM; first compound 0.03 µM
The reply should be one of these categories: true = active, false = inactive

* CC(C)CC(NC(=O)C(Cc1ccccc1)NC(=O)c1cnccn1)B(O)O (stereo unspecified) + CN1CCN(c2cc(C(=O)Nc3cc4cc(-c5cnn(C)c5)ccc4cn3)ccn2)CC1 | true
* C=CC(=O)Nc1cc(Nc2nccc(-c3cn(C)c4ccccc34)n2)c(OC)cc1N(C)CCN(C)C + CNC(=O)c1ccc(Nc2nc(OC3CCCC3)c3c(-c4ccc5nc(C)oc5c4)c[nH]c3n2)c(OC)c1 | false
* NC(=O)C(=Cn1cnc(-c2cc(C(F)(F)F)cc(C(F)(F)F)c2)n1)c1cncnc1 + CN1CCN(c2cc(C(=O)Nc3cc4cc(-c5cnn(C)c5)ccc4cn3)ccn2)CC1 | true
* C=CC(=O)Nc1cc(Nc2nccc(-c3cn(C)c4ccccc34)n2)c(OC)cc1N(C)CCN(C)C + CN1CCN(c2cc(C(=O)Nc3cc4cc(-c5cnn(C)c5)ccc4cn3)ccn2)CC1 | true
* NC(=O)C(=Cn1cnc(-c2cc(C(F)(F)F)cc(C(F)(F)F)c2)n1)c1cncnc1 + CNC(=O)c1ccc(Nc2nc(OC3CCCC3)c3c(-c4ccc5nc(C)oc5c4)c[nH]c3n2)c(OC)c1 | false

Consider the additional compound presented here.
Asked: Can you look up the reported call for CC(C)CC(NC(=O)C(Cc1ccccc1)NC(=O)c1cnccn1)B(O)O (stereo unspecified) + CNC(=O)c1ccc(Nc2nc(OC3CCCC3)c3c(-c4ccc5nc(C)oc5c4)c[nH]c3n2)c(OC)c1 for me?
Given back: true
